Please find below pIC50 data on TYRO3 (Homo sapiens) compiled from the literature.
pIC50: −log10 of the molar value.

Give pIC50 for all molecules that follow.
1. COC[C@H](C)Nc1ncc2c(OC3CCOCC3)ncc([C@H]3CC[C@](O)(C(F)(F)F)CC3)c2n1
2. COC[C@H](C)Nc1ncc2c([C@H]3CCN(S(C)(=O)=O)C3)cc([C@H]3CC[C@H](O)CC3)n2n1
3. COC[C@H](C)Nc1ncc2c(O[C@H]3C[C@@H](O)C3(C)C)ncc([C@H]3CC[C@H](O)CC3)c2n1
4. CCCC(C)Nc1ncc2c(=O)n([C@H]3CCN(C)C[C@@H]3F)cc([C@H]3CC[C@H](O)CC3)c2n1 (stereo partly shown)
5. COCC[C@H](C)Nc1ncc2c(OC3CCOCC3)ncc([C@H]3CC[C@H](O)CC3)c2n1

Completion:
1. 6.00 to 7.00
2. ≥ 7.00
3. ≥ 7.00
4. ≥ 7.00
5. 6.00 to 7.00

Give pIC50 for all molecules that follow.
1. COC[C@H](C)Nc1ncc2c(-c3cnn(C(C)(C)C(=O)N4C[C@H](C)O[C@@H](C)C4)c3)cc([C@H]3CC[C@H](O)CC3)n2n1
2. COC[C@H](C)Nc1ncc2c(-c3cnn(C(C)(C)C(=O)N4CCC(C)(C#N)CC4)c3)cc([C@H]3CC[C@H](O)CC3)n2n1
3. CC1CC(Nc2ncc3c(OC4CCNCC4)ncc([C@H]4CC[C@@H](O)CC4)c3n2)C1 (stereo partly shown)
4. COC[C@H](C)Nc1ncc2c(Nc3cccnc3)ncc([C@H]3CC[C@H](O)CC3)c2n1
5. COC[C@H](C)Nc1ncc2c(-c3cnn(CC(=O)N[C@H]4CCOC4)c3)cc([C@H]3CC[C@H](O)CC3)n2n1
6. C[C@H]1CCCN1C1(C)CCc2ccc(-c3cnc4[nH]nc(-c5ccc(C(C)(C)O)c(Cl)c5)c4c3)cc2CC1 (stereo partly shown)
7. CNC(=O)Cn1cc(-c2cc([C@H]3CC[C@H](O)CC3)n3nc(N[C@@H](C)COC)ncc23)cn1
8. COc1cc2nccc(Oc3ccc(NC(=O)c4nn(C(C)C)cc(-c5ccc(F)cc5)c4=O)cn3)c2cc1OC

Completion:
1. ≥ 7.00
2. ≥ 7.00
3. ≥ 7.00
4. ≥ 7.00
5. ≥ 7.00
6. 6.00 to 7.00
7. ≥ 7.00
8. 7.92

Give pIC50 for all molecules that follow.
1. COC[C@H](C)Nc1ncc2c(-c3cnn([C@H]4CCOC4)c3)cc([C@H]3CC[C@H](O)CC3)n2n1
2. CC(Nc1ncc2c(-c3ccc(CN4CCOCC4)cc3)cc(C3CCC(O)CC3)n2n1)C(F)(F)F (stereo not shown)
3. COC[C@H](C)Nc1ncc2c(-c3ccnc(O[C@@H]4CCCN(C)C4)c3)cc([C@H]3CC[C@H](O)CC3)n2n1
4. C[C@@H](CC(F)(F)F)Nc1ncc2c(-c3ccc([S@@](C)(=N)=O)nc3)cc([C@H]3CC[C@H](O)CC3)n2n1
5. Cc1cc(Cl)ccc1Nc1ncc2c(OC3CCNCC3)ncc([C@H]3CC[C@H](O)CC3)c2n1

Completion:
≥ 7.00
≥ 7.00
≥ 7.00
≥ 7.00
≥ 7.00

Give pIC50 for all molecules that follow.
1. C[C@@H]1CCCN1C1(C)CCc2ccc(-c3cnc4[nH]nc(-c5ccc(C(=O)NC6CC6)cc5)c4c3)cc2CC1 (stereo partly shown)
2. CC(C)S(=O)(=O)c1ccc(-c2n[nH]c3ncc(-c4ccc5c(c4)CC[C@@H](N4CCCC4)CC5)cc23)cc1
3. CC(C)C(=O)N1CCC(c2cc(-c3ccc(NC(=O)c4nn(C(C)C)c(=O)n(-c5ccccc5)c4=O)cc3)c3c(N)ncnn23)CC1
4. COc1cc2nccc(Oc3ccc(NC(=O)c4cn(CC5CCOCC5)c5ccccc5c4=O)nc3)c2cc1OC
5. COC[C@H](C)Nc1ncc2c(-c3ccc(C(C)(C)C(=O)N4CCOCC4)s3)cc([C@H]3CC[C@H](O)CC3)n2n1

Completion:
1. 6.00 to 7.00
2. > 7.00
3. 7.00 to 8.00
4. 6.69
5. ≥ 7.00

Give pIC50 for all molecules that follow.
1. COC(=O)NCC1(c2cccc(-c3ncnc4[nH]ccc34)c2)Cc2ccccc2C1
2. C[C@@H]1CCCN1C1(C)CCc2ccc(-c3cnc4[nH]nc(-c5ccc(S(N)(=O)=O)cc5)c4c3)cc2CC1 (stereo partly shown)
3. CC[C@H](C)Nc1ncc2c(O[C@H]3CC[C@H](N)CC3)ncc([C@H]3CC[C@H](O)CC3)c2n1
4. CC[C@H](C)Nc1ncc2c(NC3CCN(C)CC3)ncc([C@H]3CC[C@H](O)CC3)c2n1
5. COC[C@H](C)Nc1ncc2c([C@@H]3CCCN(c4ccnc(C)n4)C3)cc([C@H]3CC[C@H](O)CC3)n2n1

Completion:
["< 5.52", "> 7.00", "≥ 7.00", "6.00 to 7.00", "6.00 to 7.00"]

----------
Please find below IC50 data on TYRO3 (Homo sapiens, UniProt Q06418) compiled from the literature.

{"columns": ["Compound", "IC50"],
 "data": [
  ["O[C@H]1CC[C@H](c2cnc(OC3CCNCC3)c3cnc(NC4CCOCC4)nc32)CC1", "100 to 1000 nM"],
  ["CC[C@H](C)Nc1ncc2c(=O)n(C[C@@H]3COCCN3C)cc([C@H]3CC[C@H](O)CC3)c2n1", "100 to 1000 nM"]
]}

Give IC50 for all compounds that follow.
1. COC[C@H](C)Nc1ncc2c(-c3ccnc(C)c3)cc([C@H]3CC[C@@](C)(O)CC3)n2n1
2. Cc1c(-c2ccn(C)n2)cc(C(=O)Nc2ccc(-c3cc(C4CCN(C(=O)C(C)C)CC4)n4ncnc(N)c34)cc2)c(=O)n1-c1ccccn1

Completion:
1: ≤ 100 nM; 2: > 100 nM

Give IC50 for all compounds that follow.
1. CN1CCC(c2cc(-c3ccc(NC(=O)c4cccn(-c5ccccc5)c4=O)cc3)c3c(N)ncnn23)CC1
2. CC1(N[C@H]2CCOC2)CCc2ccc(-c3cnc4[nH]nc(-c5ccc(S(=O)(=O)C6CC6)cc5)c4c3)cc2CC1 (stereo partly shown)
3. COc1cc2nccc(Oc3ccc(NC(=O)c4cn(CC5CCOCC5)cc(-c5ccc(C)cc5)c4=O)nc3)c2cc1OC

Completion:
["> 100 nM", "100 to 1000 nM", "37 nM"]

----------
Please find below pIC50 data on TYRO3 (Homo sapiens, UniProt Q06418) compiled from the literature.
pIC50: −log10 of the molar value.

# annotated cases, reported pIC50 shown
{"columns": ["Compound structure", "pIC50"],
 "data": [
  ["Nc1ncnn2c(C3CCOCC3)cc(-c3ccc(NC(=O)c4cccn(-c5ccc(F)cc5)c4=O)cc3)c12", "7.00 to 8.00"],
  ["CNC(=O)c1cncc(-c2cc([C@H]3CC[C@H](O)CC3)n3nc(N[C@@H](C)COC)ncc23)c1", "≥ 7.00"]
]}

Give pIC50 for all compounds that follow.
1. C[C@@H](Nc1ncc2c(OC3CCNCC3)ncc([C@H]3CC[C@H](O)CC3)c2n1)c1ccccc1
2. CN1CCC(c2cc(-c3ccc(NC(=O)c4cccn(-c5ccc(F)cc5)c4=O)cc3F)c3c(N)ncnn23)CC1

Completion:
["6.00 to 7.00", "7.00 to 8.00"]

----------
pIC50: −log10 of the molar value.
Please find below pIC50 data on TYRO3 (Homo sapiens, UniProt Q06418) compiled from the literature.

# annotated cases, reported pIC50 shown
{"columns": ["Molecule", "pIC50"],
 "data": [
  ["CNS(=O)(=O)N1CCC(c2cnc(OC3CCOCC3)c3cnc(N[C@@H](C)COC)nc23)CC1", "6.00 to 7.00"],
  ["COC[C@H](C)Nc1ncc2c(-c3cccc(C4CCc5nc(C)[nH]c5C4)c3)cc([C@H]3CC[C@H](O)CC3)n2n1 (some centres unmarked)", "≥ 7.00"],
  ["COC[C@H](C)Nc1ncc2c(O[C@H]3CC[C@H](O)CC3)ncc([C@H]3CC[C@H](O)CC3)c2n1", "≥ 7.00"],
  ["COC[C@H](C)Nc1ncc2c(-c3ccnc(N4CCN(C(=O)C5COC5)CC4)c3)cc([C@H]3CC[C@H](O)CC3)n2n1", "≥ 7.00"],
  ["CCC1(N2CCC[C@H]2CO)CCc2ccc(-c3cnc4[nH]nc(-c5ccc(C(N)=O)c(Cl)c5)c4c3)cc2CC1 (some centres unmarked)", "> 7.00"]
]}

Give pIC50 for all molecules that follow.
1. O[C@H]1CC[C@H](c2cnc(OC3CCOCC3)c3cnc(Nc4ccc(Cl)cc4)nc32)CC1
2. COC[C@H](C)Nc1ncc2c(-c3ccc(CN4CCN(c5nccc(C)n5)CC4)cc3)cc([C@H]3CC[C@H](O)CC3)n2n1
3. COCCN1CCC(c2cc(-c3ccc(NC(=O)c4cccn(-c5ccc(F)cc5)c4=O)cc3F)c3c(N)ncnn23)CC1
4. CC(C)NC(=O)c1ccc(-c2n[nH]c3ncc(-c4ccc5c(c4)CCC(C)(N4CCC[C@H]4C)CC5)cc23)cc1 (some centres unmarked)
5. CC(C)n1cc(C(=O)Nc2ccc(-c3cc(C4CCN(C5CCN(C)C5=O)CC4)n4ncnc(N)c34)cc2)c(=O)n(-c2ccccc2)c1=O (racemic)
6. CC(COc1ccccc1)Nc1ncc2c(-c3cnn(C4COC4)c3)cc([C@H]3CC[C@H](O)CC3)n2n1 (mixture of isomers)

Completion:
1. ≥ 7.00
2. ≥ 7.00
3. 8.00 to 8.30
4. 6.00 to 7.00
5. 7.00 to 8.00
6. ≥ 7.00

Give pIC50 for all molecules that follow.
1. COC[C@H](C)Nc1ncc2c(OC3CCOCC3)ncc(-c3cccc(C#N)c3)c2n1
2. [2H]C([2H])([2H])OCC(C)Nc1ncc2c(-c3ccnc(N4CCOCC4)c3)cc(C3CCC(O)CC3)n2n1 (centres unmarked)
3. COC[C@H](C)Nc1ncc2c(-c3cnn(CC(=O)N4CCOCC4)c3)cc([C@H]3CC[C@H](O)CC3)n2n1

Completion:
1: 6.00 to 7.00; 2: ≥ 7.00; 3: ≥ 7.00
